Reported values of pIC50 for individual entries
- Test system: hWB
- Test Protocol: IC50 hWB (TNF-α release assay)
- Format: cell-based
- Condition Parameters: Homo sapiens
In textbook form, pIC50 equals minus log to base ten of the concentration in mol/L.

Chemical String	pIC50
O=C(NCc1nnc(-c2ccc(F)cc2)s1)c1cc(C(=O)c2c(F)cc(F)cc2F)c[nH]1	6.00
O=C(NCc1nnc(-c2ccccc2)s1)c1cc(C(=O)c2c(F)cc(F)cc2F)c[nH]1	5.36
O=C(NCc1nnc(-c2c(F)cccc2F)s1)c1cc(C(=O)c2c(F)cc(F)cc2F)c[nH]1	5.55

# input for lookup
Query block: Please look up its pIC50: O=C(NCc1nnc(-c2ccco2)s1)c1cc(C(=O)c2c(F)cc(F)cc2F)c[nH]1
Result block: 6.21
